- target_under_test: Sodium-dependent dopamine transporter (Homo sapiens)
- Sequence (Q01959 whole entry): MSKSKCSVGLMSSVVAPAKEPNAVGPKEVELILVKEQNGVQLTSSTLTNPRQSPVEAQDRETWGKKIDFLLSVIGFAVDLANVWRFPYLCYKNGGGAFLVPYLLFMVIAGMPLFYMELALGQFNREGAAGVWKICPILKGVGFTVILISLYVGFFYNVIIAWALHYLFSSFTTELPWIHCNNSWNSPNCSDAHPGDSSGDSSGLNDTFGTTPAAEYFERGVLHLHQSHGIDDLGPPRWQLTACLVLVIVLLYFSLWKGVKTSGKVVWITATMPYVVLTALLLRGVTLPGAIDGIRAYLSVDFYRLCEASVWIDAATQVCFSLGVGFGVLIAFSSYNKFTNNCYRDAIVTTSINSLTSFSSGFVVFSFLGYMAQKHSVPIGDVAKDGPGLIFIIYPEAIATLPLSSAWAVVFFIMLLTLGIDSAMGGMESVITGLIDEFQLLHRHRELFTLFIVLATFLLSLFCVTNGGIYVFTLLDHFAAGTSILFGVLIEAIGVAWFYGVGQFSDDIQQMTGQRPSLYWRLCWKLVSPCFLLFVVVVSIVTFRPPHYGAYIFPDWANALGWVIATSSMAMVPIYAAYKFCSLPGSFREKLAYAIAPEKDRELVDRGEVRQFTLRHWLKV
- assay_explanation: Inhibition of dopamine reuptake at DAT expressed in CHO-K1 cells
parameter: IC50

compound	IC50
CN1C[C@@H]2CCCC[C@]2(c2ccc(Cl)cc2Cl)C1 (racemic)	1290 nM
CN1C[C@@H]2CCC[C@]2(c2ccc3ccccc3c2)C1 (racemic)	100 nM
CN1C[C@H]2CCC[C@@]2(c2ccc(Cl)c(Cl)c2)C1	148 nM
Clc1ccc(C[C@@]23CCCC[C@@H]2CNC3)cc1Cl	158 nM
Clc1ccc([C@@]23CCCC[C@@H]2CNC3)cc1Cl	83.2 nM
Clc1ccc([C@]23CCCC[C@@H]2CNC3)cc1Cl (racemic; 19a)	1020 nM

Consider CCN1C[C@@H]2CCCC[C@]2(c2ccc(Cl)c(Cl)c2)C1 (single isomer, unassigned) . Its measured IC50 is 10 nM

Form field IC50, entry CN1C[C@H]2CCCC[C@@]2(c2ccc(Cl)c(Cl)c2)C1 (single isomer, unassigned) : 55 nM

What the record says about CN1C[C@H]2CCCC[C@@]2(c2cccc3ccccc23)C1 : IC50 is 2450 nM

What the record says about CN1C[C@H]2CCCC[C@@]2(Cc2ccc(Cl)c(Cl)c2)C1 (stereo in doubt) : IC50 is 479 nM

---

- target_under_test: Sodium-dependent noradrenaline transporter (Homo sapiens)
- Sequence (P23975 whole entry): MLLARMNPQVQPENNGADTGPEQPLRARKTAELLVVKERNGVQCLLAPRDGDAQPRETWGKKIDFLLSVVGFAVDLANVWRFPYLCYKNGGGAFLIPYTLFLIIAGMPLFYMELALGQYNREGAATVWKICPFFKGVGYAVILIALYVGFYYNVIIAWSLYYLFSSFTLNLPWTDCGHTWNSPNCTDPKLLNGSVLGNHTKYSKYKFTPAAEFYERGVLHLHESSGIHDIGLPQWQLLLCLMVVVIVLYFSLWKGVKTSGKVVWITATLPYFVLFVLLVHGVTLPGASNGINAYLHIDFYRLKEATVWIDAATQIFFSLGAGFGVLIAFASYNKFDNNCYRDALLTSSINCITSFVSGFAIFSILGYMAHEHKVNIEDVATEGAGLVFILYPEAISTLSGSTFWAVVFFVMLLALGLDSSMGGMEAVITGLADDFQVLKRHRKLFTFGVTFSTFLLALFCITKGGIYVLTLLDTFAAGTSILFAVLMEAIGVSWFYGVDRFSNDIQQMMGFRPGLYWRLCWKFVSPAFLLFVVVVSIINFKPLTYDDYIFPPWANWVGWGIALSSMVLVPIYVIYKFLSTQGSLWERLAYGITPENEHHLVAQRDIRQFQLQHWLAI
- assay_explanation: Inhibition of norepinephrine reuptake at NET expressed in MDCK cells
pIC50: −log10 of the molar value.
The label depends only on pIC50: 1.0 if it is at least 7, 0.0 if it is smaller.

Previously resolved entries follow.
compound	assigned_class
CN1C[C@H]2CCC[C@@]2(c2ccc(Cl)c(Cl)c2)C1	1.0
Clc1ccc([C@]23CCCC[C@@H]2CNC3)cc1Cl (racemic; 19a)	0.0
CN1C[C@H]2CCCC[C@@]2(Cc2ccc(Cl)c(Cl)c2)C1 (stereo in doubt)	0.0
CN1C[C@@H]2CCCC[C@]2(c2ccc3ccccc3c2)C1	0.0
Clc1ccc(C[C@@]23CCCC[C@@H]2CNC3)cc1Cl	0.0
CN1C[C@@H]2CCCC[C@]2(c2ccc3ccccc3c2)C1 (racemic)	0.0

Input line: # bool: pIC50 of CN1C[C@@H]2CCCC[C@]2(c2cccc3ccccc23)C1 (racemic) >= 7
Output line: 0.0

Input line: Form field: pIC50 at least 7? Entry: c1ccc2cc([C@@]34CCC[C@@H]3CNC4)ccc2c1
Output line: 1.0

Input line: // inclusive: pIC50 at least 7? input: CN1C[C@H]2CCCC[C@@]2(c2ccc3ccccc3c2)C1
Output line: 0.0

Input line: Quick check: does CN1C[C@H]2CCCC[C@@]2(c2ccc(Cl)c(Cl)c2)C1 (single isomer, unassigned) have pIC50 greater than or equal to 7?
Output line: 1.0

Input line: Assess whether reported pIC50 for c1ccc2cc([C@]34CCC[C@H]3CNC4)ccc2c1 sits at 7 or higher.
Output line: 1.0

---

- target_under_test: Sodium-dependent noradrenaline transporter (Homo sapiens)
- assay_explanation: Inhibition of norepinephrine reuptake at NET expressed in MDCK cells
parameter: log10 of IC50 (log10 of the value in nM)
log10 IC50, nM

compound	target_under_test	parameter	endpoint_value
COc1ccc([C@]23CCCC[C@H]2CN(C)C3)cc1 (racemic)	Sodium-dependent noradrenaline transporter (Homo sapiens)	log10 of IC50	4.15
COc1ccc([C@]23CCCC[C@H]2CN(C)C3)cc1OC (racemic)	Sodium-dependent noradrenaline transporter (Homo sapiens)	log10 of IC50	3.77
CCN1C[C@H]2CCCC[C@@]2(c2ccc(Cl)c(Cl)c2)C1	Sodium-dependent noradrenaline transporter (Homo sapiens)	log10 of IC50	1.43
CN1C[C@H]2CCCC[C@@]2(c2cccc3ccccc23)C1	Sodium-dependent noradrenaline transporter (Homo sapiens)	log10 of IC50	2.31
CN1C[C@@H]2CCCC[C@]2(c2ccccc2)C1 (racemic)	Sodium-dependent noradrenaline transporter (Homo sapiens)	log10 of IC50	2.75
CN1C[C@@H]2CCC[C@]2(c2ccc(Cl)c(Cl)c2)C1 (single isomer, unassigned)	Sodium-dependent noradrenaline transporter (Homo sapiens)	log10 of IC50	1.98

Please look at the following compound next.
Considering CN1C[C@@H]2CCCC[C@]2(Cc2ccc(Cl)c(Cl)c2)C1 (stereo in doubt) , its log10 of IC50 with Sodium-dependent noradrenaline transporter (Homo sapiens) was recorded as 3.65
